# system.tested: interaction between PD-1 and PD-L1 (Homo sapiens (Human))
# procedure.details: Cisbio PD-1/PD-L1 binding assay kit (HTRF)
# test.settings: 8-10 concentrations, read-out: IC50, inhibitory activity at molecular level on the interaction between PD-1 and PD-L1
attribute.measured: IC50 (nM)
Your answer is read as nM, so omit the unit and give the number.

Solved entries:
1. O=C(COc1cc(OCc2cccc(-c3ccccc3)c2Br)c(Cl)cc1CN1CCCC[C@H]1C(=O)O)NO: 183
2. NC(=O)[C@H](CO)NCc1cc(Cl)c(OCc2cccc(-c3ccccc3)c2Br)cc1OCC1CC1 (stereo in doubt): 81.6
3. NC(=O)COc1cc(OCc2cccc(-c3ccccc3)c2Br)c(Cl)cc1CN[C@@H](CO)C(=O)O: 312
4. C#CCOc1cc(OCc2cccc(-c3ccccc3)c2Br)c(Cl)cc1CNCCNC(C)=O: 1800
5. CN(C)C(=O)COc1cc(OCc2cccc(-c3ccccc3)c2Br)c(Cl)cc1CNC(CO)C(=O)O (stereo not shown): 42.5
6. O=C(O)[C@H](CO)NCc1cc(Cl)c(OCc2cccc(-c3ccccc3)c2Br)cc1OCC1CC1: 41.7

Exercise: Please give the measured IC50 for this compound: NC(=O)NCCC[C@H](NCc1cc(Cl)c(OCc2cccc(-c3ccccc3)c2Br)cc1OCC1CC1)C(=O)O
Key: 1410

---

# system.tested: interaction between PD-1 and PD-L1 (Homo sapiens (Human), UniProt Q9NZQ7)
# Sequence (Q9NZQ7 19-238): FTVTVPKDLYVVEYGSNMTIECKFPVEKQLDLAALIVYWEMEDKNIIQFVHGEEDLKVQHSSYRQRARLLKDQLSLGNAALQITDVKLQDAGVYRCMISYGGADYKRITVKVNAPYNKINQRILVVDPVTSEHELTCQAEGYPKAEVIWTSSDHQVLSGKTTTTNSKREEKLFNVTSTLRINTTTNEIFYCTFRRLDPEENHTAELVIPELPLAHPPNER
# procedure.details: Cisbio PD-1/PD-L1 binding assay kit (HTRF)
# test.settings: 8-10 concentrations, read-out: IC50, inhibitory activity at molecular level on the interaction between PD-1 and PD-L1
pIC50: −log10 of the molar value. Counter-ions that a name gives are not always drawn.
Values of pIC50 greater than or equal to 7 map to label 1; values below map to label 0.

Example entries begin here.
1) O=C(O)[C@@H]1C[C@H](O)CN1Cc1cc(Cl)c(OCc2cccc(-c3ccc4c(c3)OCCO4)c2Br)cc1OCC1CC1: label 1
2) O=C(O)[C@H](CO)NCc1cc(Cl)c(OCc2cccc(-c3ccccc3)c2Br)cc1OCC(=O)N1CCOCC1: label 1
3) CC(=O)NCCNCc1cc(Cl)c(OCc2cccc(-c3ccccc3)c2Br)cc1OCC1CC1 [Example 5]: label 0
4) COc1cc(OCc2cccc(-c3ccccc3)c2Br)c(Cl)cc1CNCCNC(C)=O [Example 2, hydrochloride]: label 0
5) CON(C)C(=O)COc1cc(OCc2cccc(-c3ccccc3)c2Br)c(Cl)cc1CN[C@@H](CO)C(=O)O: label 0
6) CC(=O)NCCNCc1cc(Cl)c(OCc2cccc(-c3ccccc3)c2Br)cc1OCC1CC1 [Example 10]: label 0

Please turn your attention to the following entry.
Exercise: Quick check: does C[C@@H](O)[C@H](NCc1cc(Cl)c(OCc2cccc(-c3ccccc3)c2Br)cc1OCC1CC1)C(=O)O have pIC50 greater than or equal to 7?
Key: label 1
